Literature-derived IC50 for Procathepsin L (Homo sapiens, UniProt P07711) follows.

# annotated cases, reported IC50 shown
Problem: Kindly indicate its recorded IC50. Item: CC(C)C[C@H](NC(=O)OC(C)(C)C)C(=O)N[C@@H]1/C=C/C(=O)N[C@@H](C(C)C)C(=O)N[C@@H](Cc2ccc(O)cc2)C(=O)OC1
Solution: < 3 µM

Problem: Kindly indicate its recorded IC50. Item: N#CC1(NC(=O)C2(NC(=O)c3cc4ccc(-c5ccc(C6(O)COC6)nc5)cc4o3)CCCCC2)CC1
Solution: ≥ 10 µM

Problem: Kindly indicate its recorded IC50. Item: CC(C)[C@@H]1NC(=O)/C=C/[C@@H](NC(=O)[C@@H](NC(=O)[C@H](Cc2ccccc2)NC(=O)OC(C)(C)C)C(C)C)COC(=O)[C@H](Cc2ccc(O)cc2)NC1=O
Solution: < 3 µM

Problem: Kindly indicate its recorded IC50. Item: COc1ccc(-c2ccc3cc(C(=O)NC4(C(=O)NC5(C#N)CC5)CCC(F)(F)CC4)oc3c2)cc1OC
Solution: > 10 µM

Problem: Kindly indicate its recorded IC50. Item: COc1cc(-c2ccc3cc(C(=O)NC4(C(=O)NC5(C#N)CC5)CCC(F)(F)CC4)oc3c2)ccc1-n1cncn1
Solution: > 10 µM

Now let's try a different one.
Problem: Kindly indicate its recorded IC50. Item: CC(C)C[C@H](N[C@@H](c1ccc(-c2ccc([S+](C)[O-])cc2)cc1)C(F)(F)F)C(=O)N1C[C@H](F)[C@H]2OCC(=O)[C@H]21 (stereo partly shown)
Solution: 180 µM
